Sourced from patent EP4035684A1

Tested on: MV522 cell line
protocol-description: cells
Assay type: cell-based
condition-set: read-out: Mean IC50 value (nM) ± SD, N=3 unless otherwise indicated; MV522 Target Cell Line; 2 hr exposure; MV522 target cell line, 2 hr exposure; mean ± SD, N=3 unless otherwise indicated
Where a SMILES comes first, the peptide text is derived from it. The star is where a group is joined. X4 = CC1=C(C*)C2=C(C)C3(CC3)[C@@](C)(O)C(=O)C2=C1
endpoint-name: IC50

Sample records with IC50:
CC1=C(CSC[C@H](NC(=O)[C@H](CCCNC(=N)N)NC(=O)CNC(=O)[C@H](CC(N)=O)NC(=O)[C@@H](N)CSCC2=C(C)C=C3C(=O)[C@](C)(O)C4(CC4)C(C)=C32)C(=O)O)C2=C(C)C3(CC3)[C@@](C)(O)C(=O)C2=C1 [compound 100] (H-C(X4)NGRC(X4)-OH) | > 10000 nM
CC1=C(CCCOC(=O)CNC(=O)OC(C)(C)C)C2=C(C)C3(CC3)[C@@](C)(O)C(=O)C2=C1 [compound 298] | > 7000 nM
CC1=C(CSc2nc3ccccc3s2)C2=C(C)C3(CC3)[C@@](C)(O)C(=O)C2=C1 [compound 147] | > 76000 nM

// next item, IC50 requested
Entry CC1=C(CSc2nnnn2-c2ccc(O)cc2)C2=C(C)C3(CC3)[C@@](C)(O)C(=O)C2=C1 [compound 154] has what IC50? > 70000 nM
